- Tested on: SNB-19 CNS
- Method description: NCI tumour cell line growth inhibition, 48 h
Field: GI50. Provide a value for each of the compounds that follow.

**Q:** # get_value(readout='GI50', item= O=c1cc(-c2ccccc2)oc2cc(O)c(O)c(O)c12 )
**A:** 30 µM

**Q:** Requested read-out: GI50. Entry: N#Cc1ncc(-c2ccc(C(F)(F)F)cc2)c(NCc2cc(C(F)(F)F)cc(C(F)(F)F)c2)n1
**A:** 4.84 µM

**Q:** GI50 for Cc1cc2cc3cc(C)c(N(C)C)cc3[n+](C)c2cc1N(C)C ?
**A:** 4.22 µM

**Q:** For the compound O=C(Nc1ccc(F)cc1)Nc1ccccc1CNc1nc(Nc2ccc(OCCN3CCCC3)cc2)ncc1Cl , what GI50 is on record?
**A:** 3 µM

**Q:** Would you mind telling me what GI50 value was observed for Cc1cc(NCCCNc2ccnc3cc(Cl)ccc23)nc(N2CCN(C)CC2)n1 ?
**A:** 12.5 µM
